assay: Inhibition of cytochrome P450 progesterone 16-alpha hydroxylase; assay type: ADME, Rattus norvegicus
REPORTED METRIC: IC50 (µM)
One number for each entry, in µM.

As a guide, the following entries are already answered.
| COMPOUND | IC50, µM |
| --- | --- |
| CC(=O)N1CCN(c2ccc(OCC3COC(Cn4ccnc4)(c4ccc(Cl)cc4Cl)O3)cc2)CC1 (stereo in doubt; 2) [KETOCONAZOLE] | 83.9 |
| CC(=O)N1CCN(c2ccc(OCC3COC(Cn4ccnc4)(c4ccc(Cl)cc4Cl)O3)cc2)CC1 (stereo in doubt; 4) [KETOCONAZOLE] | 69.3 |
| CC(=O)N1CCN(c2ccc(OC[C@@H]3CO[C@](Cn4ccnc4)(c4ccc(Cl)cc4Cl)O3)cc2)CC1 | 32.3 |

Below: the item to evaluate.
Form field IC50, entry CC(=O)N1CCN(c2ccc(OC[C@H]3CO[C@@](Cn4ccnc4)(c4ccc(Cl)cc4Cl)O3)cc2)CC1 : 37.9

---

The molecules below have reported IC50 for Cytochrome P450 2A2 (Rattus norvegicus).

Below, 3 molecules whose answers are already recorded.
| MOLECULE | IC50 |
| --- | --- |
| CC(=O)N1CCN(c2ccc(OCC3COC(Cn4ccnc4)(c4ccc(Cl)cc4Cl)O3)cc2)CC1 (stereo in doubt; 4) [KETOCONAZOLE] | 369 nM |
| CC(=O)N1CCN(c2ccc(OC[C@H]3CO[C@@](Cn4ccnc4)(c4ccc(Cl)cc4Cl)O3)cc2)CC1 | 1080 nM |
| CC(=O)N1CCN(c2ccc(OCC3COC(Cn4ccnc4)(c4ccc(Cl)cc4Cl)O3)cc2)CC1 (stereo in doubt; 2) [KETOCONAZOLE] | 543 nM |

For the next question, use this molecule.
// field: IC50; key: CC(=O)N1CCN(c2ccc(OC[C@@H]3CO[C@](Cn4ccnc4)(c4ccc(Cl)cc4Cl)O3)cc2)CC1 ; value = 728 nM

---

Task for the reader: assign each of the following compounds its reported pIC50.
molecular target: Cholesterol side-chain cleavage enzyme, mitochondrial (Bos taurus) (UniProt P00189); experiment: Inhibition of cholesterol side chain cleavage cytochrome P450
Sequence (P00189 whole entry, looked up): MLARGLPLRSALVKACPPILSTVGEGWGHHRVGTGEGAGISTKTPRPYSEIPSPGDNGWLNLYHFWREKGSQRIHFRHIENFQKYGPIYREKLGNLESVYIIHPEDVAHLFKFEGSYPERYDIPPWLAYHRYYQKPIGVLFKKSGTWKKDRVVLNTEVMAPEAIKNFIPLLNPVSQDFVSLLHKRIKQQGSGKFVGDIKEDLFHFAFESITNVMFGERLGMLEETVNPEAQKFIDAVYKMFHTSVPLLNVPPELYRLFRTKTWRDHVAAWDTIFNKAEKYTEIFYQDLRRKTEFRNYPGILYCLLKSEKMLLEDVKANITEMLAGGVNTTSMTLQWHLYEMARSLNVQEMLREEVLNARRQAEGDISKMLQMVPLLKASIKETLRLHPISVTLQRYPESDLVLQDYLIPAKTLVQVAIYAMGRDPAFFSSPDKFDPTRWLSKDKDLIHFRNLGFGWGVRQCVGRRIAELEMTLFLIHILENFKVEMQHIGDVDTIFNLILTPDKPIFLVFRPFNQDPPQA
One number for each entry, as −log10 of the molar value.

Here are 3 compounds together with their reported answers.
| COMPOUND | ASSAY TARGET | pIC50 |
| --- | --- | --- |
| CC(=O)N1CCN(c2ccc(OC[C@H]3CO[C@@](Cn4ccnc4)(c4ccc(Cl)cc4Cl)O3)cc2)CC1 | Cholesterol side-chain cleavage enzyme, mitochondrial (Bos taurus) (UniProt P00189) | 5.53 |
| CC(=O)N1CCN(c2ccc(OC[C@@H]3CO[C@](Cn4ccnc4)(c4ccc(Cl)cc4Cl)O3)cc2)CC1 | Cholesterol side-chain cleavage enzyme, mitochondrial (Bos taurus) (UniProt P00189) | 5.41 |
| CC(=O)N1CCN(c2ccc(OCC3COC(Cn4ccnc4)(c4ccc(Cl)cc4Cl)O3)cc2)CC1 (stereo in doubt; 2) [KETOCONAZOLE] | Cholesterol side-chain cleavage enzyme, mitochondrial (Bos taurus) (UniProt P00189) | 5.91 |

// moving on: another record for pIC50
The compound CC(=O)N1CCN(c2ccc(OCC3COC(Cn4ccnc4)(c4ccc(Cl)cc4Cl)O3)cc2)CC1 (stereo in doubt; 4) [KETOCONAZOLE] showed pIC50 equal to 5.27

meta.source: ChEMBL document CHEMBL1125500
